conditions: in ethanol, 283.15 K
Measured Metric: solubility (mole fraction)

>>> numeric_readout("C[C@]12CCC3=C4CCC(=O)C=C4CC[C@H]3[C@@H]1CC[C@@]2(O)CC#N")
0.00152

====

conditions: in THF, 318.15 K
Measured Metric: solubility (mole fraction)

>>> numeric_readout("C[C@]12CCC3=C4CCC(=O)C=C4CC[C@H]3[C@@H]1CC[C@@]2(O)CC#N")
0.0201

====

conditions: in ethanol, 278.15 K
Measured Metric: solubility (mole fraction)

>>> numeric_readout("C[C@]12CCC3=C4CCC(=O)C=C4CC[C@H]3[C@@H]1CC[C@@]2(O)CC#N")
0.00122
